Catalogue of compounds with associated pKi
# TARGET UNDER TEST: SpeG (Staphylococcus aureus, UniProt A0A0H2XGJ0)
# Sequence (A0A0H2XGJ0 1-165): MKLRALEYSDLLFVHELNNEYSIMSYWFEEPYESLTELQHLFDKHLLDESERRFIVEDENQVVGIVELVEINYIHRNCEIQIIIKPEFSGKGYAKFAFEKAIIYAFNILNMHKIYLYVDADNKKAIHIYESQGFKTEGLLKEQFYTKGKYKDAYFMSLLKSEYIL
Here pKi is given on a logarithmic scale as minus log10 of the concentration in mol/L.

Some entries whose results are on file:
[[record]]
compound = "CCCCCCCCCCNCCN [OES2-0086]"
readout_type = "pKi"
value = 2.92

[[record]]
compound = "CCCCCCCCCCCCN [OES2-0052]"
readout_type = "pKi"
value = 3.80

[[record]]
compound = "CCCCCCCCNCCN [OES2-0085]"
readout_type = "pKi"
value = 2.90


Form: compound = CCCCCCCCCCN [OES2-0077] ; pKi = 3.07

---

# TARGET UNDER TEST: SAT1 (Homo sapiens)
# Sequence (P21673 whole entry): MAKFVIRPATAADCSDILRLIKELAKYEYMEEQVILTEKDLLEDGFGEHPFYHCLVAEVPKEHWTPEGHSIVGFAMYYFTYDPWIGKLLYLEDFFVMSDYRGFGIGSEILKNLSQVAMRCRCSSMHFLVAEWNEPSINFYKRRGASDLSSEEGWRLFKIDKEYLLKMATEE
# TEST DESCRIPTION: colorimetric DTNB SSAT assay
# Format: biochemical
READOUT TYPE: pKi
In plain terms, pKi is the concentration in mol/L turned into minus its base-10 logarithm.

Below, 2 compounds whose answers are already recorded.
[[record]]
compound = "CCCCCCCCCCCCN [OES2-0052]"
value = 3.80

[[record]]
compound = "CCCCCCCCCCN [OES2-0077]"
value = 3.13


Short answer for CCCCCCCCNCCCN [OES2-0045] : pKi was 3.64
